Target: T1, human CD154, soluble antigen (human, UniProt P29965 116-261, limits assumed)
T1 construct: KinExA uses 'soluble antigen'; also called CD40 ligand; CD40L
T1 sequence (looked up): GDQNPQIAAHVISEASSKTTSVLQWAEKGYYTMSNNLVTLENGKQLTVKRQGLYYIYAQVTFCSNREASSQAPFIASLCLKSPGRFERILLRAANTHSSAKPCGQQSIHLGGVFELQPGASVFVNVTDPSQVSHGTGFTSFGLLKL
Assay: ELISA-based competitive binding assay; unlabeled Fab against biotin-labeled 5c8 Fab competitor
REPORTED_PROPERTY: ELISA fold-improvement over wildtype (fold)
Form entry: value (fold) — number only.

Reference set, count: 5
5c8 Fab Mutant #7 (light chain Q27E) (Fab, V domains shown, also called Gln27Glu) VH: QVQLVQSGAEVVKPGASVKLSCKASGYIFTSYYMYWVKQAPGQGLEWIGEINPSNGDTNFNEKFKSKATLTVDKSASTAYMELSSLRSEDTAVYYCTRSDGRNDMDSWGQGTLVTVSS VL: DIVLTQSPATLSVSPGERATISCRASERVSSSTYSYMHWYQQKPGQPPKLLIKYASNLESGVPARFSGSGSGTDFTLTISSVEPEDFATYYCQHSWEIPPTFGGGTKLEIK ... 6.3
5c8 Fab Mutant #23 (heavy Y33W; light S26D/Q27E) (Fab, V domains shown) VH: QVQLVQSGAEVVKPGASVKLSCKASGYIFTSYWMYWVKQAPGQGLEWIGEINPSNGDTNFNEKFKSKATLTVDKSASTAYMELSSLRSEDTAVYYCTRSDGRNDMDSWGQGTLVTVSS VL: DIVLTQSPATLSVSPGERATISCRADERVSSSTYSYMHWYQQKPGQPPKLLIKYASNLESGVPARFSGSGSGTDFTLTISSVEPEDFATYYCQHSWEIPPTFGGGTKLEIK ... 5.2
5c8 Fab Mutant #8 (light chain S31V) (Fab, V domains shown) VH: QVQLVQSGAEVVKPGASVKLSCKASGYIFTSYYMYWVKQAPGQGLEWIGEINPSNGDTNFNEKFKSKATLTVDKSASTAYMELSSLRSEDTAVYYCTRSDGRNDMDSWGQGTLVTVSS VL: DIVLTQSPATLSVSPGERATISCRASQRVSVSTYSYMHWYQQKPGQPPKLLIKYASNLESGVPARFSGSGSGTDFTLTISSVEPEDFATYYCQHSWEIPPTFGGGTKLEIK ... 0.02
5c8 Fab Mutant #15 (light chain S26D/Q27E/T33W) (Fab, V domains shown) VH: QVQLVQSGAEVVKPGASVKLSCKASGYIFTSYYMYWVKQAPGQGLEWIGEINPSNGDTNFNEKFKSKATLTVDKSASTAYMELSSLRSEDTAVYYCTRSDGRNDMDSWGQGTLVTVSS VL: DIVLTQSPATLSVSPGERATISCRADERVSSSWYSYMHWYQQKPGQPPKLLIKYASNLESGVPARFSGSGSGTDFTLTISSVEPEDFATYYCQHSWEIPPTFGGGTKLEIK ... 3.8
5c8 Fab Mutant #1 (heavy chain T30H) (Fab, V domains shown) VH: QVQLVQSGAEVVKPGASVKLSCKASGYIFHSYYMYWVKQAPGQGLEWIGEINPSNGDTNFNEKFKSKATLTVDKSASTAYMELSSLRSEDTAVYYCTRSDGRNDMDSWGQGTLVTVSS VL: DIVLTQSPATLSVSPGERATISCRASQRVSSSTYSYMHWYQQKPGQPPKLLIKYASNLESGVPARFSGSGSGTDFTLTISSVEPEDFATYYCQHSWEIPPTFGGGTKLEIK ... 2.3

Data request, read-out ELISA fold-improvement over wildtype, for 5c8 Fab Mutant #18 (heavy T30H; light S26D/Q27E/T33W) (Fab, V domains shown) VH: QVQLVQSGAEVVKPGASVKLSCKASGYIFHSYYMYWVKQAPGQGLEWIGEINPSNGDTNFNEKFKSKATLTVDKSASTAYMELSSLRSEDTAVYYCTRSDGRNDMDSWGQGTLVTVSS VL: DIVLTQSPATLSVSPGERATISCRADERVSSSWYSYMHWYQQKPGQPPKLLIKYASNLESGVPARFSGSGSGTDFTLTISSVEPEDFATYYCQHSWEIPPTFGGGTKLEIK 5.4

Data request, read-out ELISA fold-improvement over wildtype, for 5c8 Fab Mutant #6 (light chain S26D) (Fab, V domains shown, also called Ser26Asp) VH: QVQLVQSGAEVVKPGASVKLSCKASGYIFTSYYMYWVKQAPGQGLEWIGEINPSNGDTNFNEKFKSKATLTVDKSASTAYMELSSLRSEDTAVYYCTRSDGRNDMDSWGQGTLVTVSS VL: DIVLTQSPATLSVSPGERATISCRADQRVSSSTYSYMHWYQQKPGQPPKLLIKYASNLESGVPARFSGSGSGTDFTLTISSVEPEDFATYYCQHSWEIPPTFGGGTKLEIK 2.6
